- System: 30 human AML cell lines
- assayName: Cell viability MTS assay, panel of cell lines
- Format: cell-based
- experimentalParameters: Homo sapiens, 48 h, read-out: EC50 of 25 of 30 cell lines, 25 of 30 cell lines; 24 and 48-hour time points
pEC50: −log10 of the molar value.
recordedMetric: pEC50

[
  {
    "testSmiles": "CCCCCCCCCCCCCCC[C@@H](O)[C@H](CO)NC(=O)CCl",
    "reportedMeasurement": "> 5.30"
  }
]

----------
- System: PBMCs from healthy donors
- assayName: Cell viability of normal samples ([…]-GLO)
- Format: cell-based
- experimentalParameters: Homo sapiens, PBMC; PBMCs (n=6); 24 hours
pEC50: −log10 of the molar value.

[
  {
    "molecule": "CCCCCCCCCCCCCCC[C@@H](O)[C@H](CO)NC(=O)CCl [SACLAC]",
    "assaySystem": "PBMCs from healthy donors",
    "pEC50": 5.13
  }
]
